Target: UniProtKB P07550
Experiment: arrestin-GFP localization (Fgrains) assay in U20S-β2AR/ArrGFP cells, isoproterenol stimulated
Conditions: B2AR CO2 plate: 37° C., 5% CO2/95% O2; 100 nM isoproterenol
The reader will find reported Min (fitted minimum Fgrains) values listed item by item below.
Number, no unit, nothing else.

Reference set, count: 8
C[n+]1cc2c3c(ccc2c2ccc4cc5c(cc4c21)OCO5)OCO3 [Sanguinarine Chloride (S5890), Sanguinarine Chloride]; 108
Cn1cc(C2=C(c3c4n(c5ccccc35)CCC(CN)C4)C(=O)NC2=O)c2ccccc21 (stereo not drawn) [RO-31-8425]; 233
Cl.NCCCn1cc(C2=C(c3c[nH]c4ccccc34)C(=O)NC2=O)c2ccccc21 [Bisindolylmaleimide III, Hydrochloride]; −568
O=C1NC(=O)C(c2cn(CCCN3CCNCC3)c3ccccc23)=C1c1c[nH]c2ccccc12 [Bisindolylmaleimide VII]; 167
Cn1cc(C2=C(c3cn(CCCN)c4ccccc34)C(=O)NC2=O)c2ccccc21 [RO-31-7549]; 193
C[n+]1cc2c3c(ccc2c2ccc4cc5c(cc4c21)OCO5)OCO3 [Sanguinarine Chloride (LOPAC), Sanguinarine Chloride]; 85
CCC(=O)n1nc2c(c1C(C)(C)C)C(=O)c1ccccc1-2; 307
NCCCn1cc(C2=C(c3c[nH]c4ccccc34)C(=O)NC2=O)c2ccccc21 [Bisindolylmaleimide III]; 243

Read the next record carefully.
Ask | Name the reported Min (fitted minimum Fgrains) value associated with the compound CN1CCCC1CCn1cc(C2=C(c3c[nH]c4ccccc34)C(=O)NC2=O)c2ccccc21 (stereo not drawn) [Bisindolylmaleimide II]
Reply | −70

---

Target: UniProt:P07550
Assay: arrestin-GFP localization (Fgrains) assay in U20S-β2AR/ArrGFP cells, isoproterenol stimulated
Conditions: B2AR CO2 plate: 37° C., 5% CO2/95% O2; 100 nM isoproterenol
readout-kind: Max Rsp (change between fitted maximum and fitted minimum Fgrains)
# respond with the number and nothing more

Ask | For O=C1NC(=O)C(c2cn(CCCN3CCNCC3)c3ccccc23)=C1c1c[nH]c2ccccc12 [Bisindolylmaleimide VII] , what is its reported Max Rsp (change between fitted maximum and fitted minimum Fgrains)?
Reply | 278

Ask | Max Rsp (change between fitted maximum and fitted minimum Fgrains) lookup needed for Cn1cc(C2=C(c3c4n(c5ccccc35)CCC(CN)C4)C(=O)NC2=O)c2ccccc21 (stereo not drawn) , thanks.
Reply | 203

Ask | // query Max Rsp (change between fitted maximum and fitted minimum Fgrains) value for entry C[n+]1cc2c3c(ccc2c2ccc4cc5c(cc4c21)OCO5)OCO3 [Sanguinarine Chloride (S5890), Sanguinarine Chloride]
Reply | 312

---

Biological target: UniProtKB P30518
Test: arrestin-GFP localization (Fgrains) assay in U20S-V2R/ArrGFP cells, arginine vasopressin stimulated
Format: cell-based
Conditions: V2R RT plate: room temperature, atmospheric CO2; 100 nM arginine vasopressin
Experimental: The assay was carried out using two different “double stable” human osteosarcoma cell (U20S) lines. […] The other cell line (U20S-V2R/ArrGFP) stably expressed V2R and the same arrestin-GFP conjugate. […] Each assay was then terminated using 1% paraformaldehyde containing 1 μM DRAQ5 DNA probe to fix the cells. The cells were analyzed using a pre-production model (alpha unit) of the IN Cell Analyzer 3000 (Amersham Biosciences), which is a line scanning, confocal imaging system. […]
readout-kind: Max Rsp (change between fitted maximum and fitted minimum Fgrains)
// print number alone

Check out these entries, answers already filled in.
NCCCn1cc(C2=C(c3c[nH]c4ccccc34)C(=O)NC2=O)c2ccccc21 [Bisindolylmaleimide III]; 361
CN1CCCC1CCn1cc(C2=C(c3c[nH]c4ccccc34)C(=O)NC2=O)c2ccccc21 (centres unmarked) [Bisindolylmaleimide II]; 576

Ask | Entry O=C1NC(=O)C(c2cn(CCCN3CCNCC3)c3ccccc23)=C1c1c[nH]c2ccccc12 [Bisindolylmaleimide VII] : reported Max Rsp (change between fitted maximum and fitted minimum Fgrains) = ?
Reply | 717

Ask | Could you share which Max Rsp (change between fitted maximum and fitted minimum Fgrains) value was measured for Cn1cc(C2=C(c3cn(CCCN)c4ccccc34)C(=O)NC2=O)c2ccccc21 [RO-31-7549] ?
Reply | 320

Ask | What value of Max Rsp (change between fitted maximum and fitted minimum Fgrains) has been recorded for this entry: Cl.NCCCn1cc(C2=C(c3c[nH]c4ccccc34)C(=O)NC2=O)c2ccccc21 [Bisindolylmaleimide III, Hydrochloride]
Reply | 690

Ask | Can you share its Max Rsp (change between fitted maximum and fitted minimum Fgrains)? I mean this compound: Cn1cc(C2=C(c3c4n(c5ccccc35)CCC(CN)C4)C(=O)NC2=O)c2ccccc21 (centres unmarked) [RO-31-8425]
Reply | 342

Ask | # query: Max Rsp (change between fitted maximum and fitted minimum Fgrains) of entry C[n+]1cc2c3c(ccc2c2ccc4cc5c(cc4c21)OCO5)OCO3 [Sanguinarine Chloride (S5890), Sanguinarine Chloride]
Reply | 533

Ask | // lookup Max Rsp (change between fitted maximum and fitted minimum Fgrains) for C[n+]1cc2c3c(ccc2c2ccc4cc5c(cc4c21)OCO5)OCO3 [Sanguinarine Chloride (LOPAC), Sanguinarine Chloride]
Reply | 508

---

Target: UniProt:P30518
Assay: arrestin-GFP localization (Fgrains) assay in U20S-V2R/ArrGFP cells, arginine vasopressin stimulated
Assay type: cell-based
Settings: V2R RT plate: room temperature, atmospheric CO2; 100 nM arginine vasopressin
readout-kind: pEC50
Give only the figure.

Examples with their reported pEC50 follow.
Cn1cc(C2=C(c3cn(CCCN)c4ccccc34)C(=O)NC2=O)c2ccccc21 [RO-31-7549]; 5.5
CN1CCCC1CCn1cc(C2=C(c3c[nH]c4ccccc34)C(=O)NC2=O)c2ccccc21 (stereo not drawn) [Bisindolylmaleimide II]; 4.5
NCCCn1cc(C2=C(c3c[nH]c4ccccc34)C(=O)NC2=O)c2ccccc21 [Bisindolylmaleimide III]; 4.7
O=C1NC(=O)C(c2cn(CCCN3CCNCC3)c3ccccc23)=C1c1c[nH]c2ccccc12 [Bisindolylmaleimide VII]; 4.4
Cn1cc(C2=C(c3c4n(c5ccccc35)CCC(CN)C4)C(=O)NC2=O)c2ccccc21 (stereo not drawn) [RO-31-8425]; 5.2

Ask | # lookup: pEC50 of Cl.NCCCn1cc(C2=C(c3c[nH]c4ccccc34)C(=O)NC2=O)c2ccccc21 [Bisindolylmaleimide III, Hydrochloride]
Reply | 4.3

---

Molecular target: HA-tagged human β2-adrenergic receptor (β2AR) (Homo sapiens)
Sequence (P07550 whole entry): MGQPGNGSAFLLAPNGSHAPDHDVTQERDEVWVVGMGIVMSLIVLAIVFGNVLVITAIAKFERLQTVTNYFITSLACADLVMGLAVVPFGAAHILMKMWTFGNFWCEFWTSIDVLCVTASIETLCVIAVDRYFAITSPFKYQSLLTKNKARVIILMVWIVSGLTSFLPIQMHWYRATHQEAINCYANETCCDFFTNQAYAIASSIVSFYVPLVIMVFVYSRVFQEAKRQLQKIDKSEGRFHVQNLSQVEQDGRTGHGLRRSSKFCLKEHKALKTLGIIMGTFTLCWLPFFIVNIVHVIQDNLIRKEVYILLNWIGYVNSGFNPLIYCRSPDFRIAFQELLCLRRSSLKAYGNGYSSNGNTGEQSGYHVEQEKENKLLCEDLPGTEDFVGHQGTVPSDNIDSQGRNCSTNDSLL
Experiment: arrestin-GFP localization (Fgrains) assay in U20S-β2AR/ArrGFP cells, isoproterenol stimulated
readout-kind: EC50 (µM)
Record the value in µM, omitting the unit from your answer.

Ask | Give HA-tagged human β2-adrenergic receptor (β2AR) (Homo sapiens) EC50 for CCC(=O)n1nc2c(c1C(C)(C)C)C(=O)c1ccccc1-2
Reply | 46.9

---

Target: human vasopressin V2 receptor (V2R) (Homo sapiens, UniProt P30518)
Sequence (P30518 whole entry): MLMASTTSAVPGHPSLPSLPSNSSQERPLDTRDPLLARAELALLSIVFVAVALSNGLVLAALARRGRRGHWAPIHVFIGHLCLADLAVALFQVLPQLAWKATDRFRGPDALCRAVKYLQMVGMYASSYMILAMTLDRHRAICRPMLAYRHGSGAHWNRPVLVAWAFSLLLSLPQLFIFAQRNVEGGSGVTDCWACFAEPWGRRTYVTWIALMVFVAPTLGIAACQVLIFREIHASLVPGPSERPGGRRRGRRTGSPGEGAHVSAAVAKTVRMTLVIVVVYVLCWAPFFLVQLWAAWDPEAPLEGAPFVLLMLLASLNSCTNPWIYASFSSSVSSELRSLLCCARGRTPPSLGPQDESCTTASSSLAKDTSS
Assay: arrestin-GFP localization (Fgrains) assay in U20S-V2R/ArrGFP cells, arginine vasopressin stimulated
Format: cell-based
Conditions: V2R RT plate: room temperature, atmospheric CO2; 100 nM arginine vasopressin
readout-kind: slope of concentration-response curve

See these solved cases before continuing.
C[n+]1cc2c3c(ccc2c2ccc4cc5c(cc4c21)OCO5)OCO3 [Sanguinarine Chloride (S5890), Sanguinarine Chloride]; 2.0
O=C1NC(=O)C(c2cn(CCCN3CCNCC3)c3ccccc23)=C1c1c[nH]c2ccccc12 [Bisindolylmaleimide VII]; 1.1

# evaluate next
Ask | So what does the record say about slope of concentration-response curve for Cl.NCCCn1cc(C2=C(c3c[nH]c4ccccc34)C(=O)NC2=O)c2ccccc21 [Bisindolylmaleimide III, Hydrochloride] ?
Reply | 1.2

---

Target: human vasopressin V2 receptor (V2R) (Homo sapiens)
Experiment: arrestin-GFP localization (Fgrains) assay in U20S-V2R/ArrGFP cells, arginine vasopressin stimulated
Format: cell-based
Settings: V2R CO2 plate: 37° C., 5% CO2/95% O2; 100 nM arginine vasopressin
# slope of concentration-response curve per record follows
The response must contain the number and no unit.

Solved cases below.
Cl.NCCCn1cc(C2=C(c3c[nH]c4ccccc34)C(=O)NC2=O)c2ccccc21 [Bisindolylmaleimide III, Hydrochloride]; 1.4
O=C1NC(=O)C(c2c[nH]c3ccccc23)=C1c1c[nH]c2ccccc12 [Bisindolylmaleimide IV]; 6.5

Ask | I would be grateful if you could share the reported slope of concentration-response curve for Cn1cc(C2=C(c3c4n(c5ccccc35)CCC(CN)C4)C(=O)NC2=O)c2ccccc21 (stereo not drawn) .
Reply | 1.0

Ask | I'd like to know its slope of concentration-response curve. The molecule in question is O=C1NC(=O)C(c2cn(CCCN3CCNCC3)c3ccccc23)=C1c1c[nH]c2ccccc12 [Bisindolylmaleimide VII]
Reply | 2.4

Ask | What value of measured slope of concentration-response curve is listed for NCCCn1cc(C2=C(c3c[nH]c4ccccc34)C(=O)NC2=O)c2ccccc21 [Bisindolylmaleimide III] ?
Reply | 1.9
